Target entity: cloned rat PDE10A full-length enzyme (Rattus norvegicus, UniProt Q9QYJ6)
Construct: cloned rat PDE10A full-length enzyme grown in transfected Sf9 insect cells
Sequence (Q9QYJ6 whole entry): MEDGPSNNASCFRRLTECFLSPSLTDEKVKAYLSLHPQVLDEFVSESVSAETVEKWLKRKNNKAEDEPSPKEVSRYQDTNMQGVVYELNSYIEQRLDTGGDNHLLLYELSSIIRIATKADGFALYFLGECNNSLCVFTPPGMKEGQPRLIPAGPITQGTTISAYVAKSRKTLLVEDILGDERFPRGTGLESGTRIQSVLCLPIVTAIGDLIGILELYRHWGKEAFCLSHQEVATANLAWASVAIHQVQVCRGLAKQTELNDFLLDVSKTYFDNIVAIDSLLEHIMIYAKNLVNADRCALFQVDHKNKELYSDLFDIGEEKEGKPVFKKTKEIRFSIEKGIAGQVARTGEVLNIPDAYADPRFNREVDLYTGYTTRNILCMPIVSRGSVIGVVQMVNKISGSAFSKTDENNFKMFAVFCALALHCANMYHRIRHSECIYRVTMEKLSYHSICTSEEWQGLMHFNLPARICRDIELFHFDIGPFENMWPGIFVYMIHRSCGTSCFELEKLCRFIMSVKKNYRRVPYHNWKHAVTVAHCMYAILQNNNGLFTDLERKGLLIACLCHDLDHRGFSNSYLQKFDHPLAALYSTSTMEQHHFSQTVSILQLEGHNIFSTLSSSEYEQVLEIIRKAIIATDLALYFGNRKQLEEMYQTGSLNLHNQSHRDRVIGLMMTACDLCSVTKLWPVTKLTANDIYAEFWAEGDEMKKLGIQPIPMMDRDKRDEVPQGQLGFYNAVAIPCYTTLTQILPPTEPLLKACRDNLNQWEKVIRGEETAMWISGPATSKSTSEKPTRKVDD
Test name: PDE10 enzyme inhibition, [3H]cAMP scintillation proximity assay
Condition info: rat PDE10A from Sf9 cells, 20 nM [3H]cAMP, SPA beads, 20 minute incubation at room temperature
pIC50: −log10 of the molar value.
Property name: pIC50

> print(dat)
                                   molecule  property.name  endpoint.value
1  Cc1ccc(-n2cc(-c3cncs3)nc2-c2ccc(-n3c(C(F)(F)F)nc4cccnc43)cc2)cn1 [Example 117]          pIC50            9.21
2  c1ccc(-c2cn(-c3cncnc3)c(-c3ccc(-n4ccc5cccnc54)cc3)n2)nc1 [Example 4]          pIC50            7.87
3  Cc1cc(-c2nc(-c3cccs3)n(O)c2-c2cnccn2)ccc1-n1ccc2cccnc21 [Example 109]          pIC50            7.74
4  CN(C)CCc1cn(-c2ccc(-c3nc(-c4ccccn4)cn3-c3cccnc3)cc2)c2ncccc12 [Example 10]          pIC50            8.05
5  c1ccc(-c2cn(-c3cccnc3)c(-c3ccc(-n4c5ccccc5c5cccnc54)cc3)n2)nc1 [Example 19]          pIC50            9.00
6  COc1ccc(-c2[nH]c(-c3cccs3)nc2-c2ccc(-n3cnc(-c4ccccc4)c3)cc2)cc1 [Example 108]          pIC50            6.22
7  Clc1ccc(-c2ccc(-c3nc(-c4ccccn4)cn3-c3cncnc3)cc2)cc1 [Example 71]          pIC50            7.17
8  Cc1ccc(-n2cc(-c3ccccn3)nc2-c2ccc(-n3ccc4ncccc43)cc2)cn1 [Example 52]          pIC50            8.03
